Field: olfactory response index. Provide a value for each of the molecules that follow.
tested on: Drosophila melanogaster; assay: olfactory response index (dipstick assay) (fraction of flies (RI; 1 aversion, 0.5 indifferent, 0 attraction)); higher = stronger aversion to the odorant; conditions: genotype (tubulin-GAL4 x UAS-RNAi line; control = progenitor): obp 83a; odorant concentration: 1% v/v; male
One number for each entry.

Solved cases below.
CCOC(C)=O [ethyl acetate]: 0.21
Cc1cnccn1 [2-methylpyrazine]: 0.305
CC(=O)c1ccccc1 [acetophenone]: 0.745
COC(=O)c1ccccc1O [methyl salicylate]: 0.225
CC(=O)OCCC(C)C [isoamyl acetate]: 0.339
C=C(C)[C@H]1CC=C(C)C(=O)C1 [(S)-carvone]: 0.304

Now for the molecule whose olfactory response index we want.
Enquiry: Find the recorded olfactory response index belonging to CCCCCC(C)=O [2-heptanone] and report it.
Return: 0.339

====

Field: olfactory response index. Provide a value for each of the compounds that follow.
test system: Drosophila melanogaster; assay: olfactory response index (dipstick assay) (fraction of flies (RI; 1 aversion, 0.5 indifferent, 0 attraction)); higher = stronger aversion to the odorant; conditions: genotype (tubulin-GAL4 x UAS-RNAi line; control = progenitor): A5; odorant concentration: 1% v/v; male
Give bare numbers.

Provide each entry's olfactory response index from the list below.
1. CC(=O)OCCC(C)C [isoamyl acetate]
2. C=C(C)[C@@H]1CC=C(C)C(=O)C1 [(R)-carvone]
3. CCCCCC(C)=O
4. CCc1cnccn1
5. CC(C)=CCCC(C)=CC=O (mixture of isomers)
6. CCOC(C)=O [ethyl acetate]
7. Cc1cnccn1

Return:
0.156
0.627
0.365
0.416
0.266
0.36
0.457

Provide each entry's olfactory response index from the list below.
1. CC(=O)c1ccccc1
2. OCCc1ccccc1

Return:
1: 0.629; 2: 0.116

====

Field: olfactory response index. Provide a value for each of the compounds that follow.
test system: Drosophila melanogaster; assay: olfactory response index (dipstick assay) (fraction of flies (RI; 1 aversion, 0.5 indifferent, 0 attraction)); higher = stronger aversion to the odorant; conditions: genotype (tubulin-GAL4 x UAS-RNAi line; control = progenitor): control; odorant concentration: 1% v/v; male

Solved cases below.
CCC=O: 0.158
CCCCCC(C)=O: 0.0673
CC(=O)c1ccccc1: 0.394

Enquiry: What reported olfactory response index corresponds to CCc1cnccn1 on Drosophila melanogaster?
Return: 0.118

====

test system: Drosophila melanogaster; assay: olfactory response index (dipstick assay) (fraction of flies (RI; 1 aversion, 0.5 indifferent, 0 attraction)); higher = stronger aversion to the odorant; conditions: genotype (tubulin-GAL4 x UAS-RNAi line; control = progenitor): obp 18a; odorant concentration: 1% v/v; male
Field: olfactory response index. Provide a value for each of the molecules that follow.
Answers are plain numbers.

Solved cases below.
COC(=O)c1ccccc1O [methyl salicylate]: 0.0711
CC(C)=CCCC(C)=CC=O (mixture of isomers): 0.202
CCCCCC(C)=O: 0.32
Cc1cnccn1: 0.178
C=C(C)[C@H]1CC=C(C)C(=O)C1 [(S)-carvone]: 0.22

Provide each entry's olfactory response index from the list below.
1. CCOC(C)=O [ethyl acetate]
2. OCCc1ccccc1

Return:
1. 0.417
2. 0.0701

Provide each entry's olfactory response index from the list below.
1. CC(=O)OCCC(C)C [isoamyl acetate]
2. CCC/C=C/C=O [(E)-2-hexenal]
3. CC(C)=CCC/C(C)=C/CO
4. CCc1cnccn1

Return:
1. 0.362
2. 0.494
3. 0.0872
4. 0.0666

====

test system: Drosophila melanogaster; assay: olfactory response index (dipstick assay) (fraction of flies (RI; 1 aversion, 0.5 indifferent, 0 attraction)); higher = stronger aversion to the odorant; details: genotype (tubulin-GAL4 x UAS-RNAi line; control = progenitor): A5; odorant concentration: 1% v/v; female
Field: olfactory response index. Provide a value for each of the compounds that follow.
One number for each entry.

Solved cases below.
C=C(C)[C@@H]1CC=C(C)C(=O)C1 [(R)-carvone]: 0.747
CCc1cnccn1 [2-ethylpyrazine]: 0.581
Cc1cnccn1 [2-methylpyrazine]: 0.623
CC(=O)c1ccccc1 [acetophenone]: 0.747
OCCc1ccccc1 [2-phenylethanol]: 0.396

Provide each entry's olfactory response index from the list below.
1. CC(C)=CCC/C(C)=C/CO [geraniol]
2. CC(=O)OCCC(C)C [isoamyl acetate]

Return:
0.71
0.442

====

system: Drosophila melanogaster; experiment: olfactory response index (dipstick assay) (fraction of flies (RI; 1 aversion, 0.5 indifferent, 0 attraction)); higher = stronger aversion to the odorant; conditions: genotype (tubulin-GAL4 x UAS-RNAi line; control = progenitor): obp 58c; odorant concentration: 1% v/v; male
Field: olfactory response index. Provide a value for each of the molecules that follow.
One number for each entry.

CCOC(C)=O [ethyl acetate]: 0.181

Provide each entry's olfactory response index from the list below.
1. CC(C)=CCCC(C)=CC=O (mixture of isomers)
2. OCCc1ccccc1
3. CCCCCC(C)=O
4. C=C(C)[C@H]1CC=C(C)C(=O)C1 [(S)-carvone]
5. CC(=O)c1ccccc1
6. CC(C)=CCC/C(C)=C/CO

Return:
1: 0.166; 2: 0.125; 3: 0.328; 4: 0.468; 5: 0.578; 6: 0.114

Enquiry: Find the recorded olfactory response index belonging to C=C(C)[C@@H]1CC=C(C)C(=O)C1 [(R)-carvone] and report it.
Return: 0.24

====

tested on: Drosophila melanogaster; test: olfactory response index (dipstick assay) (fraction of flies (RI; 1 aversion, 0.5 indifferent, 0 attraction)); higher = stronger aversion to the odorant; conditions: genotype (tubulin-GAL4 x UAS-RNAi line; control = progenitor): obp 57b; odorant concentration: 1% v/v; male
Assay Metric: olfactory response index
Give bare numbers.

CCCCCC(C)=O: 0.368
CC(C)=CCC/C(C)=C/CO: 0.0917

Enquiry: Find the recorded olfactory response index belonging to CCc1cnccn1 and report it.
Return: 0.0743

====

test system: Drosophila melanogaster; assay: olfactory response index (dipstick assay) (fraction of flies (RI; 1 aversion, 0.5 indifferent, 0 attraction)); higher = stronger aversion to the odorant; settings: genotype (tubulin-GAL4 x UAS-RNAi line; control = progenitor): obp 56a; odorant concentration: 1% v/v; female
Assay Metric: olfactory response index
One number for each entry.

Solved cases below.
OCCc1ccccc1: 0.299
CC(C)=CCC/C(C)=C/CO: 0.581
COC(=O)c1ccccc1O [methyl salicylate]: 0.523

Provide each entry's olfactory response index from the list below.
1. C=C(C)[C@@H]1CC=C(C)C(=O)C1 [(R)-carvone]
2. CCc1cnccn1
3. Cc1cnccn1
4. CCCCCC(C)=O
5. CC(C)=CCCC(C)=CC=O (mixture of isomers)
6. CCC=O
7. C=C(C)[C@H]1CC=C(C)C(=O)C1 [(S)-carvone]

Return:
[0.532, 0.409, 0.318, 0.392, 0.195, 0.24, 0.357]

Enquiry: Find the recorded olfactory response index belonging to CC(=O)OCCC(C)C [isoamyl acetate] and report it.
Return: 0.665

====

tested on: Drosophila melanogaster; assay: olfactory response index (dipstick assay) (fraction of flies (RI; 1 aversion, 0.5 indifferent, 0 attraction)); higher = stronger aversion to the odorant; details: genotype (tubulin-GAL4 x UAS-RNAi line; control = progenitor): obp 22a; odorant concentration: 1% v/v; female
Field: olfactory response index. Provide a value for each of the molecules that follow.
Numbers only.

Solved cases below.
CC(C)=CCCC(C)=CC=O (mixture of isomers) [citral]: 0.474
CC(=O)OCCC(C)C [isoamyl acetate]: 0.625

Provide each entry's olfactory response index from the list below.
1. C=C(C)[C@@H]1CC=C(C)C(=O)C1 [(R)-carvone]
2. CC(=O)c1ccccc1 [acetophenone]

Return:
1. 0.5
2. 0.67

====

test system: Drosophila melanogaster; assay: olfactory response index (dipstick assay) (fraction of flies (RI; 1 aversion, 0.5 indifferent, 0 attraction)); higher = stronger aversion to the odorant; conditions: genotype (tubulin-GAL4 x UAS-RNAi line; control = progenitor): obp 22a; odorant concentration: 1% v/v; male
Assay Metric: olfactory response index
Give bare numbers.

CCOC(C)=O [ethyl acetate]: 0.176
CCC=O [propanal]: 0.1
CC(=O)c1ccccc1 [acetophenone]: 0.231
CC(C)=CCC/C(C)=C/CO [geraniol]: 0.0901
OCCc1ccccc1 [2-phenylethanol]: 0.0651
COC(=O)c1ccccc1O [methyl salicylate]: 0.179
C=C(C)[C@@H]1CC=C(C)C(=O)C1 [(R)-carvone]: 0.34

Now for the compound whose olfactory response index we want.
Enquiry: Find the recorded olfactory response index belonging to Cc1cnccn1 [2-methylpyrazine] and report it.
Return: 0.155

====

system: Drosophila melanogaster; assay: olfactory response index (dipstick assay) (fraction of flies (RI; 1 aversion, 0.5 indifferent, 0 attraction)); higher = stronger aversion to the odorant; settings: genotype (tubulin-GAL4 x UAS-RNAi line; control = progenitor): control; odorant concentration: 1% v/v; male
Quick rule: olfactory response index of at least 0.2 means Criterion met, below that means Criterion not met.

Illustrative cases are given below, each with its answer.
C=C(C)[C@H]1CC=C(C)C(=O)C1 [(S)-carvone]: Criterion met
OCCc1ccccc1 [2-phenylethanol]: Criterion not met
COC(=O)c1ccccc1O [methyl salicylate]: Criterion not met

Enquiry: olfactory response index >= 0.2 for C=C(C)[C@@H]1CC=C(C)C(=O)C1 [(R)-carvone] ?
Return: Criterion not met

Enquiry: Try the molecule CC(C)=CCC/C(C)=C/CO [geraniol]
Return: Criterion not met

Enquiry: Try the molecule CCC/C=C/C=O [(E)-2-hexenal]
Return: Criterion met
